Tested on: OVCAR-3 ovarian
Test: NCI-60 one-dose screen, 48 h
Conditions: 10 µM unless noted
About 83,000 compounds went through this panel and 20% of them were active in at least one assay; those are over-represented in the sample as a whole. Active and inactive are the calls of the source. How the source made its calls: active means growth percent below 10; inactive means the rest.
Result category, one only: y (active), n (inactive)

Known results for molecules:
CCOC(=O)c1cc(/C(=N\O)c2cc(OC)c(OC)c(OC)c2)n2cc(C)cc(C)c12
y
C=C1C(=O)O[C@H]2[C@H]1CC/C(COC(=O)NCc1cc(OC)c(OC)c(OC)c1)=C\CC[C@@]1(C)O[C@@H]21
n
O=C(Nc1ccc(Br)c(Cl)c1)c1cc(F)ccc1O
n

Entry NC(=O)c1c(NC(=O)c2ccc(OCC3CCCO3)cc2)sc2c1CCCC2 (centres undefined) : call = ? n

Entry Nc1nc(-c2cc3ccccc3o2)cc(=O)c(=O)[nH]1 : call = ? n

Entry COC(=O)c1ccc2nc(-c3cc4ccccc4n3C)n(CCCCOc3cc4c(cc3OC)C(=O)N3CCC[C@H]3C=N4)c2c1 : call = ? y

====

Below: a set of entries, each annotated with reported growth.
System: A549/ATCC NSCLC
Assay: NCI-60 one-dose screen, 48 h (100 = growth as untreated, 0 = no growth, -100 = all killed)
Conditions: 10 µM unless noted
Experimental: Growth inhibition of the A549/ATCC human Non-Small Cell Lung tumor cell line is measured as a screen for anti-cancer activity. Cells are grown in 96 well plates and exposed to the test compound for 48 hours. Compounds are tested at a single concentration, which is 10^-5 M for most compounds. The reported endpoint is percent growth (GI% or GIPRCNT), where numbers from 0 - 100% represent growth inhibition, and numbers from -100% - 0 represent cell death. […]
Compounds without any hit were thinned out: in the full panel of roughly 83,000, 20% have a hit. Calls of active or inactive are those of the source. How the source made its calls: active means growth percent below 10; inactive means the rest.

CC(C)CCN(CCCNc1c2c(nc3ccccc13)CCCC2)CCC(C)C
94.1% (inactive)
Cc1cc(N/C=c2\sc3ncnn3c2=O)no1
107% (inactive)
C=C1C(=O)O[C@H]2[C@H]1CC/C(Cn1cc(-c3ccc(N)cc3)nn1)=C\CC[C@@]1(C)O[C@@H]21
48.6% (inactive)
COc1cc(C2C=C(C)N=C3SC(C)=NN32)cc(OC)c1OC (stereo not given)
103% (inactive)

Please examine the following record next.
// lookup growth | system=A549/ATCC NSCLC | key= COc1ncc(-c2ccc3ncnc(Nc4cccc(Cl)c4)c3c2)cc1NS(=O)(=O)C1CC1 26.3% (inactive)

====

System: OVCAR-8 ovarian
Assay: NCI-60 one-dose screen, 48 h (100 = growth as untreated, 0 = no growth, -100 = all killed)
Conditions: 10 µM unless noted
The panel holds about 83,000 compounds, 20% with a hit somewhere; the sample as a whole holds those more often.
ATTRIBUTE MEASURED: growth (%)
Unit % implied. Number only.

Cc1cc2c(C(C)C)c(O)c(O)c(C=NCCCCCCC(=O)O)c2c(O)c1-c1c(C)cc2c(C(C)C)c(O)c(O)c(C=NCCCCCCC(=O)O)c2c1O
30.6

I am curious: what growth value has been reported for COc1ccc(/C=C/C(=O)OCC(=O)NNC(=O)c2ccccc2)cc1OC ? 102

I am curious: what growth value has been reported for Cc1ccccc1C(=O)c1ccccc1C(=O)O ? 107

I am curious: what growth value has been reported for Nc1c(C(=O)Nc2cccc(C(F)(F)F)c2)sc2nc3c(cc12)C(O)CCC3 (centres undefined) ? 46.2

====

Tested on: IGROV1 ovarian
Test: NCI-60 one-dose screen, 48 h (100 = growth as untreated, 0 = no growth, -100 = all killed)
Settings: 10 µM unless noted
About 83,000 compounds went through this panel and 20% of them were active in at least one assay; those are over-represented in the sample as a whole.
ATTRIBUTE MEASURED: growth (%)
Unit % implied. Number only.

Worked examples, 4 compounds total:
CCN(CC)CCSc1c2ccc(Cl)cc2nc2ccc(OC)cc12
98.1
CCCCCC(=O)OCc1ccccc1
96.7
O=C(Nc1cc(C(F)(F)F)cc(C(F)(F)F)c1)Nc1ccc(OCc2nnc(-c3ccc(Cl)cc3)o2)c(F)c1
32.7
ClC1=C(Cl)C(Cl)=C(Cl)C1=Cc1ccc(Cl)cc1Cl
7.32

I am curious: what growth value has been reported for COc1cc(CCn2nnc3c(Nc4ccc(N5CCOCC5)cc4)ncnc32)cc(OC)c1 ? 110

I am curious: what growth value has been reported for CN1CCN(CCCOc2ccc3nc(Nc4ccc(C(F)(F)F)c(Cl)c4)ccc3c2)CC1 ? 13.7

I am curious: what growth value has been reported for COc1ccc(S(=O)(=O)NCCNc2nccc(-c3c(-c4ccccc4)nc4sccn34)n2)cc1 ? 6.6

I am curious: what growth value has been reported for Cc1ccc2c(c1)C(=O)C(c1c(-c3[nH]c(=O)c4ccc(C)cc4c3O)c(O)c3ccccc3c1O)=NC2=O ? 6.46

I am curious: what growth value has been reported for CC(=O)Nc1nc(C(=O)N2N=C(C)/C(=C/c3ccccc3)C2=O)cs1 ? 101

I am curious: what growth value has been reported for CCC(c1cccc(Br)c1)C(C(=O)O)c1ccc(OC)cc1 (stereo not given) ? 99.3

====

Test system: SK-MEL-28 melanoma
Test: NCI-60 one-dose screen, 48 h (100 = growth as untreated, 0 = no growth, -100 = all killed)
Settings: 10 µM unless noted
This is part of a sample that, as a whole, favours compounds with a hit. Of some 83,000 tested, about 20% had one in any assay. The source made the active and inactive calls. The calls were made as follows: active = growth percent below 10; inactive = the rest.
ATTRIBUTE MEASURED: growth

Worked examples, 5 compounds total:
O=C(/C=C/c1ccccc1)n1c(-c2ccc(Cl)cc2)nc2ccccc21
-65.4% (active)
O=C(/C=C/CN1CCCCC1)Nc1cc2c(Nc3ccc(F)c(Cl)c3F)ncnc2cc1OCCOC(F)F
48.6% (inactive)
COc1ccc(S(=O)(=O)N2CCN(c3cc4c(cc3F)c(=O)c(C(=O)O)cn4C3CC3)CC2)c(OC)c1
101% (inactive)
Nc1c(C(=O)Nc2ccccc2)sc2nc3c(cc12)CCC3
80.4% (inactive)
COc1cc(C(=O)CCCl)ccc1O
107% (inactive)

I am curious: what growth value has been reported for N#CC1=C(N)n2nc(-c3ccncc3)nc2NC1c1cccc2ccccc12 (stereo not given) ? 106% (inactive)

I am curious: what growth value has been reported for COc1cc(/C=C2\CCCC3=C2NC(C)=NC3c2cc(OC)c(OC)c(OC)c2)cc(OC)c1OC (stereo not given) ? 31.9% (inactive)

I am curious: what growth value has been reported for O=C1c2ccccc2C(=O)c2c(N=Nc3sc(=O)[nH]c3S)cccc21 ? 110% (inactive)

I am curious: what growth value has been reported for O=S(=O)(NCCCNc1nccc(-c2c(-c3ccccc3)nc3sccn23)n1)c1ccc(F)cc1 ? 56.3% (inactive)

I am curious: what growth value has been reported for Oc1ccc(N=Cc2ccccc2)cc1 ? 113% (inactive)

====

Tested on: CCRF-CEM leukemia
Assay: NCI-60 one-dose screen, 48 h (100 = growth as untreated, 0 = no growth, -100 = all killed)
Settings: 10 µM unless noted
The panel holds about 83,000 compounds, 20% with a hit somewhere; the sample as a whole holds those more often.
Entries get a class label from measured growth. See ranges: A = under 20%, B = from 20% up to 80%, C = 80% and over

Known results for compounds:
C#CCC1(c2ccc(F)c(F)c2)NS(=O)(=O)c2ccccc21 (centres undefined)
C
COc1ccc(NC(=O)c2cc3ccccc3nc2Nc2cc(OC)c(OC)c(OC)c2)cc1
B

Which growth band matches COc1cc(C2CC(c3c(C)[n+]([O-])c4ccccc4[n+]3[O-])=NN2)cc(OC)c1OC (centres undefined) ? C

Which growth band matches O=C1CCCCC=C1C[N+](=O)[O-] ? B

Which growth band matches CSc1ccccc1C#C/C=C\C#Cc1ccccc1N1CCCCC1=O ? B

Which growth band matches O=S(=O)(NCCNc1cc(-c2cn(-c3ccccc3)nc2-c2ccccc2)ccn1)c1cccc2ccccc12 ? C

Which growth band matches CCN(CC)c1cc(/C=C/c2ccc(OC)c(OC)c2)nc2cc(F)c(F)cc12 ? B

Which growth band matches CCNC(=O)C1CCCN1C(=O)C(CCCN=C(N)N)NC(=O)C(CC(C)C)NC(=O)C(CC(C)C)NC(=O)C(Cc1ccc(O)cc1)NC(=O)C(CO)NC(=O)C(Cc1c[nH]c2ccccc12)NC(=O)C(Cc1cnc[nH]1)NC(=O)C1CCC(=O)N1 (centres undefined) ? B

Which growth band matches COc1ccc2c(c1)C=CC(C#N)N2C(=O)c1ccccc1 (centres undefined) ? A

Which growth band matches COc1ccc(S(=O)(=O)NCCNc2nccc(-c3c(-c4ccccc4)nc4sccn34)n2)cc1 ? B

Which growth band matches COc1cc(NS(C)(=O)=O)ccc1Nc1c2ccc([N+](=O)[O-])cc2nc2c(C)cccc12 ? A

Which growth band matches COc1cc2c(cc1OCCCCn1c(-c3cc(=O)c4ccccc4o3)nc3ccccc31)N=C[C@@H]1CCCN1C2=O ? B

Which growth band matches COc1cc(OC)c(C(=O)/C=C/c2cccc(C(F)(F)F)c2)c(OC)c1 ? A

Which growth band matches N#Cc1c(NC(=O)c2ccc([N+](=O)[O-])o2)[n+]([O-])c2cc(F)c(F)cc2[n+]1[O-] ? C

Which growth band matches Cc1ccc2nc(-c3c(N)n[nH]c3CCCO)[nH]c(=O)c2c1 ? C

Which growth band matches O=Nc1c(-c2c(O)[nH]c3ccc([N+](=O)[O-])cc23)[nH]c2ccc(O)cc12 ? A
